target: T1, human MSLN-R3-his protein (human, UniProt Q13421 487-598); assay: ELISA on coated MSLN-R3; antibody 100 nM
T1 construct: Region 3 of human mesothelin, made in HEK293E cells, His-tagged; also called human MSLN-R3 protein; hMSLN-R3-his; not shown: His tag
T1 sequence (Q13421 495-606): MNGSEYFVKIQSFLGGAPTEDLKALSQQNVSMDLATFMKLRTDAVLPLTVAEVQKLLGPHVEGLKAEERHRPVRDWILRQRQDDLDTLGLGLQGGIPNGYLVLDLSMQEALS
MEASUREMENT TYPE: OD450 (OD450)
Report only the number, with the unit OD450 understood.

# example entries with known answers
Problem: Entry S009-F8-22.23 (antibody, human IgG1, kappa, V domains shown) VH: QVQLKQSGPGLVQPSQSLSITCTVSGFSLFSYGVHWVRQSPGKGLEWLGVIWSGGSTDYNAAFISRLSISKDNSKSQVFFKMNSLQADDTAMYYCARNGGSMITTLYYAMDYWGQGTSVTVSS VL: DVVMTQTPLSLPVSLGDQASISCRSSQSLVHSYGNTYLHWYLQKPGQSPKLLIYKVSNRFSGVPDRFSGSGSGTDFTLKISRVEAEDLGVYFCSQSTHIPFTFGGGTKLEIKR : reported OD450 = ?
Solution: 0.1

Problem: Moving on to the next binder: S009-F8-27.1 (antibody, human IgG1, kappa, V domains shown) VH: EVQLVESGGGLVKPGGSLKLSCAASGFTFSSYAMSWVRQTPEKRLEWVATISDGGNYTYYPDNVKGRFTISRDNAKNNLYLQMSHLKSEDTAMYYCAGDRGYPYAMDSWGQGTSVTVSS VL: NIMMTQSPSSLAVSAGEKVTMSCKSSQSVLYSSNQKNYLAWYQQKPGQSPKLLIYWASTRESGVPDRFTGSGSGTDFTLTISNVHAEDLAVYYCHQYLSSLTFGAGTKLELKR
Solution: 0.06

Problem: Same again, this time with S009-F8-5.15 (antibody, human IgG1, kappa, V domains shown) VH: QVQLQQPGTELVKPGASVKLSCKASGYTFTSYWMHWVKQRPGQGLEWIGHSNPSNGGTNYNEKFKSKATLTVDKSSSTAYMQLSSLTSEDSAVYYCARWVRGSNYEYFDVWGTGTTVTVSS VL: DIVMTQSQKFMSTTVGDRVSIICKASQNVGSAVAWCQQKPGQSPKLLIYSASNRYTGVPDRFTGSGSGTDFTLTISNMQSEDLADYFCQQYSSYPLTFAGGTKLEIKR
Solution: 0.06

Problem: What about S009-F8-36.12 (antibody, human IgG1, kappa, V domains shown) VH: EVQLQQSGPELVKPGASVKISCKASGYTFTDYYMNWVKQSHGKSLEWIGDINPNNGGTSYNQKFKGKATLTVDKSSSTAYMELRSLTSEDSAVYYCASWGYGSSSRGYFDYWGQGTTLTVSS VL: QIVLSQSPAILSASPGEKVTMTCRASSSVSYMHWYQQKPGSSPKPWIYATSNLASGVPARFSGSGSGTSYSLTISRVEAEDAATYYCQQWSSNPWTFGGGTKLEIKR ?
Solution: 1.19

Let's switch to this binder now.
Problem: Look up OD450 for this binder: S009-F8-28.23 (antibody, human IgG1, kappa, V domains shown) VH: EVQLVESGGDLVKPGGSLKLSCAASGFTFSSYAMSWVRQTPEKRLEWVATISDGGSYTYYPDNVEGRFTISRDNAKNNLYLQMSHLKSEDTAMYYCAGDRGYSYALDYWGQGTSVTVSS VL: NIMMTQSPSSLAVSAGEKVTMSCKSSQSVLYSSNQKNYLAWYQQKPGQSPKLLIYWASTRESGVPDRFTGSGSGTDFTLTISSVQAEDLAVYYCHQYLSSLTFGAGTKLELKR
Solution: 0.07
